Here, molecules appear alongside Ki reported for the protein given by its sequence in the literature.
Target sequence: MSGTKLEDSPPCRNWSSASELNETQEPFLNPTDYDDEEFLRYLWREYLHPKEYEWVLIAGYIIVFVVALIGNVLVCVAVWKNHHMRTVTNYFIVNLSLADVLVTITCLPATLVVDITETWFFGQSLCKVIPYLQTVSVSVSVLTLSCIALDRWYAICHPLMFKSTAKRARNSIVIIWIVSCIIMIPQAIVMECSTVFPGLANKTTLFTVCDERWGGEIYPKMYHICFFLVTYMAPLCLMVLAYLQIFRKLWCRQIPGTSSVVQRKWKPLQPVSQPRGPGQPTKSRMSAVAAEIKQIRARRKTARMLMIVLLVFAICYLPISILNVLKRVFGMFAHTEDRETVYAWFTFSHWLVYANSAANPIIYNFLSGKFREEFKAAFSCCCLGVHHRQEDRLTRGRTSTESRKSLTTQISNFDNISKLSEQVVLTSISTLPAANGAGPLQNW
Numbers only here, please. The scale is nM.

// solved cases for Ki follow
{"Molecule": "O=C(c1cccc(-n2nccn2)c1)N1CCC(F)(F)[C@@H](Oc2ccc3ccccc3n2)C1", "Tgt": "the protein given by its sequence", "Ki (nM)": 871}
{"Molecule": "COc1c(F)cccc1C(=O)N1C[C@@H](C)CC[C@H]1CNc1ccc(Br)cn1", "Tgt": "the protein given by its sequence", "Ki (nM)": 63.1}
{"Molecule": "C[C@@H]1CC[C@@H](Oc2cc(S(C)(=O)=O)ccn2)CN1C(=O)c1ccccc1-n1nccn1", "Tgt": "the protein given by its sequence", "Ki (nM)": 0.9}
{"Molecule": "COc1ccc(N2C(=O)N(Cc3c(F)cc(F)cc3F)c3ccccc3S2(=O)=O)cc1OC", "Tgt": "the protein given by its sequence", "Ki (nM)": 2}
{"Molecule": "O=C(c1ccccc1-n1nccn1)N1CCC(F)(F)[C@@H](Oc2ccc3ccccc3n2)C1", "Tgt": "the protein given by its sequence", "Ki (nM)": 521}
{"Molecule": "Cc1ccc(-n2nccn2)c(C(=O)N2CCC3CCC(C2)N3c2ncc3ccc(F)cc3n2)c1 (racemic)", "Tgt": "the protein given by its sequence", "Ki (nM)": 0.8}
{"Molecule": "O=C(Nc1ccc(-c2ccccc2)cc1)[C@@H]1CCCN1C(=O)CSc1nc2ccccc2[nH]1", "Tgt": "the protein given by its sequence", "Ki (nM)": 11}
{"Molecule": "COc1ccc(N2C(=O)N(Cc3ccc(Cl)cc3F)c3ccccc3S2(=O)=O)cc1OC", "Tgt": "the protein given by its sequence", "Ki (nM)": 10}
{"Molecule": "Cc1ccc(-c2ncccn2)c(C(=O)N2C[C@@H]3C[C@@H]3C[C@H]2CNc2nnc(C(F)(F)F)s2)n1", "Tgt": "the protein given by its sequence", "Ki (nM)": 1580}
{"Molecule": "COc1cccc(CNC(=O)c2cc(-c3cc(C)cc(C)c3)cnc2-c2cccnc2)c1", "Tgt": "the protein given by its sequence", "Ki (nM)": 40.5}

For reference, reported Ki for O=C(c1nccc2[nH]ccc12)N1CCC(F)(F)[C@@H](Oc2ccc3ccccc3n2)C1 stands at 521

For reference, reported Ki for O=C(Nc1ccccc1-n1cccc1)[C@@H]1CCCN1C(=O)CCc1nc2ccccc2[nH]1 stands at 11

For reference, reported Ki for COc1ccc(OC[C@@]2(c3ccccc3)C[C@H]2C(=O)Nc2ccc(C#N)cn2)cc1OC (racemic) stands at 14

For reference, reported Ki for O=C(c1ccccc1-n1nccn1)N1CCC(F)(F)C(Oc2ncc3ccccc3n2)C1 (stereo not given) stands at 1470

For reference, reported Ki for Cc1ccc(-n2nccn2)c(C(=O)N2CC[C@@H]3CC[C@H]2CN3c2ncc3ccc(F)cc3n2)c1 stands at 105

For reference, reported Ki for O=C(Nc1ccccn1)[C@@H]1C[C@@]1(COc1ccccc1)c1ccccc1 stands at 967

====

Here, compounds appear alongside pKi reported for the protein given by its sequence in the literature.
Protein target, amino acids: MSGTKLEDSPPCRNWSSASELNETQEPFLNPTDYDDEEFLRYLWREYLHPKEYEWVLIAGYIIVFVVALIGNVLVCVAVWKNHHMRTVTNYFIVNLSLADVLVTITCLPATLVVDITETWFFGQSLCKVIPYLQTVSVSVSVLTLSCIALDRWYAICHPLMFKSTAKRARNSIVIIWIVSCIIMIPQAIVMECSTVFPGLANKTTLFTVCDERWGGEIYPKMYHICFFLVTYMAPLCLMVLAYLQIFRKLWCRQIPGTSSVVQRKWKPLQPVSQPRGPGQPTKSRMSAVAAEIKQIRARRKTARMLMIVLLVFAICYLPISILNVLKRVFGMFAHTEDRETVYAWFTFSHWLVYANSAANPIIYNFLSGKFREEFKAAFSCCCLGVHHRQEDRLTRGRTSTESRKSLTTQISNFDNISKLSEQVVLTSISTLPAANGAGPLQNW
Remember the convention: pKi equals -log10 of concentration in molar.

// solved cases for pKi follow
{"Compound": "CC1(C)OC[C@H](NC(=O)Nc2ccccc2F)[C@H](c2ccccc2)O1", "Tgt": "the protein given by its sequence", "pKi": 6.40}
{"Compound": "C[C@@H]1CC[C@@H](Oc2ccnc3c(F)cccc23)CN1C(=O)c1ccccc1N(C)C", "Tgt": "the protein given by its sequence", "pKi": 6.43}
{"Compound": "Cc1ccc2nc(SCC(=O)N3CCC[C@H]3C(=O)Nc3ccccc3-n3cccc3)[nH]c2c1", "Tgt": "the protein given by its sequence", "pKi": 9.70}
{"Compound": "COc1ccc(N2C(=O)N(Cc3c(F)cc(C)cc3Cl)c3ccccc3S2(=O)=O)cc1OC", "Tgt": "the protein given by its sequence", "pKi": 9.10}
{"Compound": "COc1ccc(OC[C@@]2(c3ccccc3)C[C@H]2C(=O)Nc2cc(C)on2)cc1OC", "Tgt": "the protein given by its sequence", "pKi": 7.55}

For reference, reported pKi for O=C(c1cccc2[nH]cnc12)N1CCC(F)(F)[C@@H](Oc2ccc3ccccc3n2)C1 stands at 5.85

For reference, reported pKi for C[C@@H]1CC[C@@H](Oc2cc(C(=O)N(C)C)ccn2)CN1C(=O)c1ccccc1-n1nccn1 stands at 8.19

For reference, reported pKi for O=C(c1ccccc1-n1nccn1)N1CCC(F)(F)C(Oc2cc3ccccc3cn2)C1 (centres undefined) stands at 6.42

====

Here, compounds appear alongside log10 Ki reported for Orexin receptor type 2 (Homo sapiens, UniProt O43614) in the literature.
Quick note: numbers are log10 of Ki, with nM as the unit.

// solved cases for log10 Ki follow
{"Compound": "COc1ccc(CNC(=O)c2cc(-c3cncc(C)c3)ncc2-c2cnccn2)nc1OC", "Tgt": "Orexin receptor type 2 (Homo sapiens, UniProt O43614)", "log10 Ki": 0.88}
{"Compound": "CC1(C)OC[C@H](NC(=O)Nc2ccc(Br)cc2Br)[C@H](c2ccccc2)O1", "Tgt": "Orexin receptor type 2 (Homo sapiens, UniProt O43614)", "log10 Ki": 3.50}
{"Compound": "O=C(Nc1ccccc1-n1cccc1)[C@H]1CCCN1C(=O)CSc1nc2ccccc2[nH]1", "Tgt": "Orexin receptor type 2 (Homo sapiens, UniProt O43614)", "log10 Ki": 2.12}
{"Compound": "CC(=O)Nc1cc(C(=O)N2C[C@H](Oc3nccc(C#N)c3C)CC[C@H]2C)c(-c2ccccc2)cn1", "Tgt": "Orexin receptor type 2 (Homo sapiens, UniProt O43614)", "log10 Ki": -0.15}
{"Compound": "CSc1ccnc(O[C@@H]2CC[C@@H](C)N(C(=O)c3ccccc3-n3nccn3)C2)c1", "Tgt": "Orexin receptor type 2 (Homo sapiens, UniProt O43614)", "log10 Ki": -0.70}

The compound COc1ccc(OC[C@@]2(c3ccccc3)C[C@H]2C(=O)Nc2nc(C)cs2)cc1OC , when measured on Orexin receptor type 2 (Homo sapiens, UniProt O43614), yielded log10 Ki of 1.15

The compound COc1ccc(N2C(=O)N(Cc3ccccc3F)c3ccccc3S2(=O)=O)cc1OC , when measured on Orexin receptor type 2 (Homo sapiens, UniProt O43614), yielded log10 Ki of 0.80

The compound COc1ccc(N2C(=O)N(Cc3c(F)cccc3Cl)c3ccccc3S2(=O)=O)cc1OC , when measured on Orexin receptor type 2 (Homo sapiens, UniProt O43614), yielded log10 Ki of -0.10

====

Here, compounds appear alongside log10 Ki reported for Orexin receptor type 2 (Homo sapiens, UniProt O43614) in the literature.
Quick note: numbers are log10 of Ki, with nM as the unit.

// solved cases for log10 Ki follow
{"Compound": "Cc1ccc(Cl)c(NC(=O)N[C@H]2COC(C)(C)O[C@H]2c2ccccc2)c1", "log10 Ki": 1.80}
{"Compound": "Cc1ccc(-n2nccn2)c(C(=O)N2C[C@H](C#Cc3ccccn3)CC[C@H]2C)c1", "log10 Ki": 1.04}
{"Compound": "Cc1cc(C)cc(-c2cnc(-c3cccnc3)c(C(=O)N(C)Cc3ccc4nccnc4c3)c2)c1", "log10 Ki": 1.89}

For reference, reported log10 Ki for COc1cc(NC(=O)[C@@H]2C[C@@]2(COc2cnc(C)nc2C)c2ccccc2)ncc1F stands at 0.78

For reference, reported log10 Ki for COc1cc(N2C(=O)N(Cc3c(F)cc(F)cc3F)c3ncccc3S2(=O)=O)cnc1OC stands at 0.40

For reference, reported log10 Ki for COc1ccc(CNC(=O)c2sc(-c3cncc(C)c3)nc2-c2cccc(F)c2)nc1OC stands at 2.15

For reference, reported log10 Ki for Cc1ccc(-n2nccn2)c(C(=O)N2C[C@H]3CC[C@@H]2CCN3c2ncc3ccc(F)cc3n2)c1 stands at 0.34

For reference, reported log10 Ki for COc1ccc(CNC(=O)c2cc(-c3cncc(C)c3)ncc2-c2ccnnc2)nc1OC stands at 2.29

For reference, reported log10 Ki for COc1ccc(CNC(=O)c2cc(-c3cncc(C)c3)ncc2-c2nccs2)nc1OC stands at 0.04

For reference, reported log10 Ki for Cc1ccc(-n2nccn2)c(C(=O)N2C[C@H](/C=C\c3ccc(F)cn3)CC[C@H]2C)c1 stands at 1.45

For reference, reported log10 Ki for COc1ccc(CNC(=O)c2cc(-c3cc(F)cc(Cl)c3)cnc2-c2cccnc2)cc1OC stands at -0.22

For reference, reported log10 Ki for COc1cc(N2C(=O)N(Cc3c(F)cc(F)cc3F)c3ccccc3S2(=O)=O)ccn1 stands at 1.80

For reference, reported log10 Ki for Cc1nn(C)cc1OCC1(c2ccccc2)CC1C(=O)Nc1ccc(C#N)cn1 (racemic) stands at 2.31

For reference, reported log10 Ki for Cc1ccc(-c2ncccn2)c(C(=O)N2C[C@H](COc3ccc(F)cn3)CC[C@H]2C)c1 stands at -0.70

For reference, reported log10 Ki for Cc1ccc2c(c1)nc(SCC(=O)N1CCC[C@H]1C(=O)Nc1ccccc1-n1cccc1)n2C stands at -1.05
